Tested on: Human papillomavirus type 1a protein E7 (residues 44-93)
Assay: small molecules binding HPV E7 44-93 – biochemical, small-molecule microarray, residues 44-93, 635 nm fluorescence, primary screen (AID 1108);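 note: E7 fragment applied at 1 µg/mL in TBST for 1 h at 4 C; score combines spot fluorescence with its signal to noise ratio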
Conditions: fluorescence 635 nm, higher = more signal
Reported composite z-score values are given for each entry in this list.
Answer as a number with no unit attached.

Field: example entries. Status: answers known.
q: # lookup: composite z-score of C=CCNC(=O)[C@@H]1[C@H]2C(=O)O[C@H](c3ccccc3)[C@H](c3ccccc3)N2[C@H](c2ccccc2OCCO)[C@@]12C(=O)Nc1ccc(C#CCCO)cc12
a: -0.489

q: # input compound: COc1ccc(CCNC(=O)[C@@]2(Sc3ccc(C)cc3)CC(=O)N(Cc3ccccc3C(F)(F)F)[C@@H]2c2ccc(CO)cc2I)cc1 ; wanted: its composite z-score
a: 0.497

q: # composite z-score lookup, item COC(=O)[C@@]1(Cc2ccc(OC)cc2)[C@H]2c3cc(C(=O)N(C)C)n(Cc4ccc(OC(F)(F)F)cc4)c3C[C@H]2CN1C(=O)c1ccccc1
a: 0.38

q: Given CCOC(=O)C[C@H]1[C@H](OC(=O)Cc2ccc3c(c2)OCO3)[C@@H](NC(=O)c2ccc3ccccc3n2)c2cc(OCCCO)ccc2N1C(=O)c1ccccc1 , state its recorded composite z-score.
a: 0.348

q: Request the reported composite z-score associated with CN(C)CCCCCCNC(=O)[C@@H]1C[C@@H]2C(=O)N3CCC[C@H]3C(=O)N2[C@@H]1c1cccc(OCCO)c1
a: 0.35

New cases:
q: Request the reported composite z-score associated with O=C1N(Cc2ccccc2)c2ccccc2C[C@]12N=C(c1ccc(OCCCO)cc1)O[C@@H]2c1ccccc1
a: 0.732

q: Any idea what its composite z-score is? The compound is CCN(CC)c1ccc(N2CC=CC34O[C@@H]5/C=C\CCCOC(=O)C5[C@H]3C(=O)N(C(C)CO)[C@@H]4C2=O)cc1 (some centres not stated)
a: -0.0836
